The measurements presented in this section are drawn from the supplement of paper PMC6555819.

- System: VDR:RXRa (NR concentration 270 nM, RXRa partner concentration 90 nM)
- assay protocol: PBM binding z-score (relative to random genomic background probes); higher = stronger binding; sequences stand for … in GC…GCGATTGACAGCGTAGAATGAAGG
Kindly state PBM binding z-score for each of the entries shown.
Lab note: jot the number down without any unit.

Per the record, TCTCGGAGGACACGAAAGGTCAGGGCTCGACATC has PBM binding z-score of 3.43

Per the record, GCAGACAGGTGAAACGCCGGTAACTCAGGGTGGC has PBM binding z-score of -0.708

Per the record, GCTACTGGGGCATCAGCAGGTTACCATAACTTAA has PBM binding z-score of 0.0562

Per the record, ATCTCTAGGTAACCATGTTCAGTGAATGCCGAAC has PBM binding z-score of 0.463

Per the record, TCAGATAGGTAAACAGGTGAAAGTCCGTAAGTTA has PBM binding z-score of 0.923

Per the record, AGTATGAGGTTATACGTAGATCAGGGAAGAAAGT has PBM binding z-score of 1.34

Per the record, CTCGAAAGGTCGTGCTCTGGTGAGTATACCAAAC has PBM binding z-score of 3.19

Per the record, GCATATAGGTAATACAAGATGAAAGTCCGATTGT has PBM binding z-score of -0.0142

Per the record, TTACCAAGGTGCGCTGAGGTCGTTGATCCAACTC has PBM binding z-score of 4.07

Per the record, AGAATGAGGTTATTAAGATCAGAGAATTGCGGTC has PBM binding z-score of 2.56

Per the record, ATCTCTAAGTAACCAAGTTCAGTGAATGCCGAAC has PBM binding z-score of 2

Per the record, TCTTTTAGATCAGCAGGTTAAGAAAGCTGGCCAA has PBM binding z-score of 0.691

Per the record, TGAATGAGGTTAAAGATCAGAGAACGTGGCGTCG has PBM binding z-score of 1.8

Per the record, GCTGCTAGGTCAATTGATGGTCAGCTAAAGCTCG has PBM binding z-score of 0.815

Per the record, GCTTACGGGTCAACGGTTATAGCATGAATAGAAT has PBM binding z-score of 3.88

Per the record, CAAACTAGGTCAAACGTCAAAGTCGAGCCAACCA has PBM binding z-score of 2.41

Per the record, CCGACTGGGGCATACGGTTACCATAAGCCAGCCC has PBM binding z-score of -0.577

Per the record, GCATTTAGGTAATACAAGGTGAAAGTCCGATTGT has PBM binding z-score of 0.176

Per the record, ACAGACAGGTGAGTGAAGGTAACTCAACTGGACG has PBM binding z-score of -0.232

Per the record, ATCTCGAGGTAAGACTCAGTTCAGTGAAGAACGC has PBM binding z-score of 0.704

Per the record, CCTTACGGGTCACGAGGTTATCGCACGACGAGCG has PBM binding z-score of 5.31

Per the record, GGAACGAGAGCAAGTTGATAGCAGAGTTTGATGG has PBM binding z-score of -0.392

Per the record, CCAGATAGGTGAGAAGGTAACTCAGCCTCGATTA has PBM binding z-score of 0.254

Per the record, GCGACTGGGGCATGAGCAGGTTACCATAACTTAA has PBM binding z-score of -0.262

Per the record, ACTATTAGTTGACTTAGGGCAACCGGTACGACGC has PBM binding z-score of 1.16

Per the record, CCCAGCAGGCCAATCTGGGTCACTCAAGGCTTGA has PBM binding z-score of 0.284

Per the record, GGAATGAGGGCAAGTTGATAGCAGAGTTTGATGG has PBM binding z-score of 1.18

Per the record, CCTAGTTGATCAAGGTCACACACGCTATAGGTAC has PBM binding z-score of 4.91

Per the record, ATATGTAGGTTAGCTGGGGTCATTCAAACTAGGC has PBM binding z-score of 6.37

Per the record, TCTAGTTGGTCACGGAGATCACACACGACGGGTA has PBM binding z-score of 0.966

Per the record, ACTAGTTGGTCAGCTGAGGACACACACAATTCGG has PBM binding z-score of 0.506

Per the record, CCGAGTAGGTTATGGGGCTTTCAGGCAACGGTGA has PBM binding z-score of -0.375

Per the record, AATACAGGGTCACTAGGCCAGAGTCGGTACGAAT has PBM binding z-score of 4.03

Per the record, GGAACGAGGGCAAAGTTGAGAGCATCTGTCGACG has PBM binding z-score of 1.55

Per the record, CTCGAAAGGTCGGTTGAGGAGAGTATACGGATAA has PBM binding z-score of 0.954

Per the record, ATCTCTCGGTAAAAGTTCAGTGAATCCCGAGGAT has PBM binding z-score of 1.03

Per the record, ATCTCTAGGTAACAGGTTCAGTGAAAGAGAGGAC has PBM binding z-score of 1.95

Per the record, CCTAGTTGGTCAGGAGGTCACTCACCGGATATGA has PBM binding z-score of 3.4

Per the record, GCTCGGAGGACAAGGTCCGAGCTTTGTCCGTAGA has PBM binding z-score of -0.684

Per the record, TCTTGTACATCAAAGGTTAAGAAAGCCGAAGCCT has PBM binding z-score of 1.55

Per the record, TCTGCTAGGTCAGTTGGTCAGCTTACGAGCTGCC has PBM binding z-score of 0.0848

Per the record, TCATATAAGTAAAGGTGAAAGTCGAACGATATGA has PBM binding z-score of 0.925

Per the record, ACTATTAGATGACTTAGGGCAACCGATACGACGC has PBM binding z-score of 0.293

Per the record, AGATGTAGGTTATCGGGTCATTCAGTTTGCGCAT has PBM binding z-score of 5.35

Per the record, ATATGTAGGTTAGCAGGGGTCATTCAGACTAGGC has PBM binding z-score of 6.33

Per the record, CGAACTAGGTAAGAACAGGACAGTGAAGGATGAT has PBM binding z-score of -0.253

Per the record, GCGACTGGGGCAAAGCAGGTTTCCATAAGGTTGG has PBM binding z-score of -0.475

Per the record, CAAACTAGGTCAATGGTCAAAGTCGAGCCAACCA has PBM binding z-score of 1.67

Per the record, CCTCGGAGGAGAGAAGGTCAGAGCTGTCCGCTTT has PBM binding z-score of 0.722

Per the record, GGAACGTGGGCATTCGAGTTGATAGCATGGCGAT has PBM binding z-score of -0.17

Per the record, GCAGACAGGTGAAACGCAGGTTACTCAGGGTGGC has PBM binding z-score of -0.128
